- target.of.assay: PEG-3 (UniProt Q6IN02)
- Sequence (Q6IN02 whole entry, looked up): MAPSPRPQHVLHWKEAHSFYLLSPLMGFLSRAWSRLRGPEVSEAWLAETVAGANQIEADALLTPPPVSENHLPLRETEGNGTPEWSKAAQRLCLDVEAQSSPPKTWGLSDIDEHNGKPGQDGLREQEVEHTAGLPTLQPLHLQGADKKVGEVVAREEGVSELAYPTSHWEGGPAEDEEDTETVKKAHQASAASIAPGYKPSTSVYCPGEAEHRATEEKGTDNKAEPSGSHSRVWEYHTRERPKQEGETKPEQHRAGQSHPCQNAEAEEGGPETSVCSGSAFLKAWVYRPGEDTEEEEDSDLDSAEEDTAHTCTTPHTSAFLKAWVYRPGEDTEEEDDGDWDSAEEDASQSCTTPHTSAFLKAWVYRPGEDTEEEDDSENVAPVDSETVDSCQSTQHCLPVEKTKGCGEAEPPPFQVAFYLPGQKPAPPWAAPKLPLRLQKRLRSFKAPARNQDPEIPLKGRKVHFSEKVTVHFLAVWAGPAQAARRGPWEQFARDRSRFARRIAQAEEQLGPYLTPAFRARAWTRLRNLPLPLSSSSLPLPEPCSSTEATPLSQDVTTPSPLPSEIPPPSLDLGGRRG
- method.notes: Peg3 promoter luciferase inhibitors, potency, dose response, cell-based, HeLa, CREF/GAPDH counter-screen panel (AID 624167)
- experimental.context: HeLa PEG-Prom luciferase reporter, overnight, CREF/GAPDH counter-screens; run 1, dose range 1, at 100 µM (top of the series)

| compound | target.of.assay | inhibition [%] |
| --- | --- | --- |
| O=Cc1cn(Cc2ccc(F)cc2)c2ccccc12 | PEG-3 (UniProt Q6IN02) | 26.6 |
| CCC1(OC(=O)CN)C(=O)OCc2c1cc1n(c2=O)Cc2cc3ccccc3nc2-1 (stereo not given) | PEG-3 (UniProt Q6IN02) | 100 |
| Cc1[nH]c2ccc(OC(F)(F)F)cc2c1CCNCc1cccc([N+](=O)[O-])c1 | PEG-3 (UniProt Q6IN02) | 101 |
| CC[C@@H](O)C[C@H]1CCC[C@@]2(C[C@@H]3OC(=O)/C=C/[C@@](C)(O)[C@@H](O)[C@H](C)[C@@H](O)[C@H](OC4CCC(N(C)C)C(C)O4)[C@@H](O)[C@](C)(O)CCCCC/C=C/[C@@H]4CC(C)(C)O[C@@]4(O)C[C@H](O2)[C@H]3C)O1 (stereo not given in full) | PEG-3 (UniProt Q6IN02) | 98.9 |
| O=Cc1cn(Cc2ccc(Br)cc2)c2ccccc12 | PEG-3 (UniProt Q6IN02) | 41.6 |
| O=C1NC(=O)N(Cc2ccc(F)cc2)C(=O)/C1=C\C=C\c1ccco1 | PEG-3 (UniProt Q6IN02) | 98.2 |
| O=C1NC(=S)N(c2ccccc2F)C(=O)/C1=C\c1cccs1 | PEG-3 (UniProt Q6IN02) | 102 |
| CC(=O)OC1(C)CC(C)C(=O)C(C(O)CC2CC(=O)NC(=O)C2)C1 (stereo not given) | PEG-3 (UniProt Q6IN02) | 96.1 |
| CC(Cc1ccccc1)NCCC(c1ccccc1)c1ccccc1 (stereo not given) | PEG-3 (UniProt Q6IN02) | 98 |
| O=C1NC(=O)N(Cc2ccco2)C(=O)/C1=C/C=C/c1ccco1 | PEG-3 (UniProt Q6IN02) | 102 |
| C=Cc1cc(OC)c2c(c1)c(=O)oc1c2cc(OC)c2c(O)ccc(C3OC(C)C(O)C(C)(O)C3O)c21 (stereo not given) | PEG-3 (UniProt Q6IN02) | 101 |
| COC(COC(N)=O)C1=C(N2CC2)C(=O)C(C)=C(N2CC2)C1=O (stereo not given) | PEG-3 (UniProt Q6IN02) | 102 |
| CCC(c1nnnn1-c1ccc2c(c1)OCCO2)N1CCC(n2c(=O)[nH]c3ccccc32)CC1 (stereo not given) | PEG-3 (UniProt Q6IN02) | 101 |
| CNCC(O)c1cc(OCc2ccccc2)c(OCc2ccccc2)cc1F (stereo not given) | PEG-3 (UniProt Q6IN02) | 102 |
| CC(=O)OC(C)(C)/C=C/C(=O)C(C)(O)C1[C@H](O)C[C@@]2(C)C3CC=C4C(CC[C@@H](O)C4(C)C)[C@]3(CO)C(=O)C[C@]12C (stereo not given in full) | PEG-3 (UniProt Q6IN02) | 102 |
| CCCCn1nnnc1C(CCSC)N1CCC(n2c(=O)[nH]c3ccccc32)CC1 (stereo not given) | PEG-3 (UniProt Q6IN02) | 72.5 |
| Cc1c(C(=O)N2CCC3(CC2)OCCO3)sc2ncnc(N3CCN(c4ccccn4)CC3)c12 | PEG-3 (UniProt Q6IN02) | 97.5 |
| COc1ccc(-n2c(/C=C/c3ccc(O)c(OC)c3)nc3ccccc3c2=O)cc1 | PEG-3 (UniProt Q6IN02) | 101 |
| CC[n+]1c(-c2ccccc2)c2cc(N)ccc2c2ccc(N)cc21 | PEG-3 (UniProt Q6IN02) | 102 |
| O=C(CSC1c2ccccc2-c2ccccc21)N/N=C/c1ccccc1O | PEG-3 (UniProt Q6IN02) | 79.8 |
